Target: T1, AFP p26 (human, UniProt P02771 381-609)
T1 construct: The construct used is not described
T1 sequence: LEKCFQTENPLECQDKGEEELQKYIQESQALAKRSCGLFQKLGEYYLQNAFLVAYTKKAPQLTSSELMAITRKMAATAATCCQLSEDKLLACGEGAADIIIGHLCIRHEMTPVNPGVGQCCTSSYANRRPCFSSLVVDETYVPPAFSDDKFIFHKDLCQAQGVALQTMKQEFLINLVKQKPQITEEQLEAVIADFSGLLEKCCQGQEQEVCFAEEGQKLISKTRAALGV
Experiment: phage ELISA, A450 target/A450 IgG1-Fc
Rule: measured ELISA_avg below 20 ratio gets class 1; anything equal to or greater than 20 ratio gets class 0.

# binder, class_name
records = [
    ("SEQ ID NO 775 (designed binder) MGSWYEFYLRLDAIDHRLWALGGSEAELAAFEKEIAAFESELQAYKGKGNPEVEMLREHAAHIRKWLQAYRHN", "class 1"),
    ("SEQ ID NO 851 (designed binder) MGSWMHFKQDLAEIKGYLEALGGSEAELAIFEMDIAWFEYMLQYYKGKGNPEVEALRKEAAAIRDELQAYRHN", "class 1"),
    ("SEQ ID NO 768 (designed binder) MGSWSEFVKRLDAIDQRLWALGGSEAELAAFEKEIAAFESELQAYKGKGNPEVESLRVHAAAIRAWLQAYRHN", "class 0"),
    ("SEQ ID NO 782 (designed binder) MGSWTEFHQRLDAIDERLWALGGSEAELAAFEKEIAAFESELQAYKGKGNPEVEFLREHAAKIRMWLQAYRHN", "class 0"),
    ("SEQ ID NO 866 (designed binder) MGSWAVFKDSLAHIKDVLEALGGSEAELALFEMDIAWFEYVLQDYKGKGNPEVEALRKEAAAIRDELQAYRHN", "class 0"),
    ("SEQ ID NO 819 (designed binder) MGSWHHFKYFLADIKSILEALGGSEAELAIFEVQIAYFEDLLQSYKGKGNPEVEALRKEAAAIRDELQAYRHN", "class 1"),
    ("SEQ ID NO 812 (designed binder) MGSWFEFSNRLYAIWHRLTALGGSEAELAAFEKEIAAFESELQAYKGKGNPEVESLRTQAAFIRILLQAYRHN", "class 1"),
    ("SEQ ID NO 872 (designed binder) MGSWVVFKSSLAQIKILLEALGGSEAELAIFEVKIAHFEQELQEYKGKGNPEVEALRKEAAAIRDELQAYRHN", "class 1"),
    ("SEQ ID NO 745 (designed binder) MGSWVEFHHRLFAIDERLWALGGSEAELAAFEKEIAAFESELQAYKGKGNPEVEYLRMVAAEIRYILQAYRHN", "class 0"),
    ("SEQ ID NO 840 (designed binder) MGSWILFKEDLAFIKWQLEALGGSEAELAWFETTIANFESDLQKYKGKGNPEVEALRKEAAAIRDELQAYRHN", "class 0"),
    ("SEQ ID NO 848 (designed binder) MGSWVYFKDHLAEIKSQLEALGGSEAELALFEYDIAWFEFILQYYKGKGNPEVEALRKEAAAIRDELQAYRHN", "class 0"),
    ("SEQ ID NO 857 (designed binder) MGSWYTFKGSLAEIKNRLEALGGSEAELAMFESDIAWFEFMLQFYKGKGNPEVEALRKEAAAIRDELQAYRHN", "class 0"),
    ("SEQ ID NO 804 (designed binder) MGSWYEFYLRLSAIEDRLFALGGSEAELAAFEKEIAAFESELQAYKGKGNPEVESLRVQAAHIRTWLQAYRHN", "class 0"),
    ("SEQ ID NO 871 (designed binder) MGSWHSFKQDLAYIKYLLEALGGSEAELAQFEELIAFFEYYLQTYKGKGNPEVEALRKEAAAIRDELQAYRHN", "class 0"),
    ("SEQ ID NO 789 (designed binder) MGSWTEFYQRLDAIDTRLWALGGSEAELAAFEKEIAAFESELQAYKGKGNPEVEGLRQQAAQIRAWLQAYRHN", "class 0"),
    ("SEQ ID NO 829 (designed binder) MGSWVLFKQELAWIKWLLEALGGSEAELAAFEEQIARFEHDLQKYKGKGNPEVEALRKEAAAIRDELQAYRHN", "class 0"),
    ("SEQ ID NO 837 (designed binder) MGSWVYFKAHLAFIKWELEALGGSEAELANFESTIAEFEKYLQVYKGKGNPEVEALRKEAAAIRDELQAYRHN", "class 0"),
]
